Origin of the recorded values: patent US12661410B2

Recorded Emax values for a group of molecules are listed next.
- experimental-target: RET(KD: 658-1114 G810R) (Homo sapiens, UniProt P07949, G810R)
- Construct: 658-1114; expressed in transfected cells; host or cells: 293T.165 (293T cells, generated in-house)
- Sequence (P07949 658-1114 G810R): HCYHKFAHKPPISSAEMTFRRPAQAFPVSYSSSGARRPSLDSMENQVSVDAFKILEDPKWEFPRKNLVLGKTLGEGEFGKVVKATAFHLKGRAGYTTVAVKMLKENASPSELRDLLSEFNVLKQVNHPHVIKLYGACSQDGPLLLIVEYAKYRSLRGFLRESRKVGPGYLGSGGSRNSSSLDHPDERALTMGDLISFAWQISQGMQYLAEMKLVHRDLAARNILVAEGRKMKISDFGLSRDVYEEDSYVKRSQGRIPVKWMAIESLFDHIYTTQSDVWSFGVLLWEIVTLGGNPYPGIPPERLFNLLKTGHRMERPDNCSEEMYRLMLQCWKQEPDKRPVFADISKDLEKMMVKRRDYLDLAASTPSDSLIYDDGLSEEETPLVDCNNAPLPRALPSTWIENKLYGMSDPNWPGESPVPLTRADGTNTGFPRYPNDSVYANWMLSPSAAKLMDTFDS
- test-summary: HiBiT-Degradation, RET G810R degradation assay (Nano-Glo HiBiT Lytic), 293T.165 cells
- Assay type: cell-based
- measurement-context: 6.0 hours, % remaining protein, read-out: 293T.165 RET(KD: 658-1114 G810R) 6.0 hours (Emax)
- Experimental: Dulbecco's modified Eagle medium (DMEM) no-phenol red media and fetal bovine serum (FBS) were purchased from Gibco (Grand Island, NY, USA). […] RET wild-type (WT) and G810R degradation were assessed using the Nano-Glo® HiBiT Lytic assay (Promega, Medison, WI, USA). […] Luminescence signal was measured using an EnVision™ Multimode plate reader (Perkin Elmer, Santa Clara, CA, USA). […]

molecule="CCC1(C(=O)NC(C)C)CCN(c2ccc(-c3nc(-c4cnn(C5CCN(C(=O)CC6(O)CCN(c7ccc(NC8CCC(=O)NC8=O)cc7Br)CC6)CC5)c4)cn4ncc(C#N)c34)cn2)CC1 (stereo not drawn) [Compound 95]" observation_type=Emax reported_value="< 30%"
molecule="N#Cc1cnn2cc(-c3cnn(C4CCN(C(=O)CC5(O)CCN(c6ccc(NC7CCC(=O)NC7=O)cc6F)CC5)CC4)c3)nc(-c3ccc(N4CCN(C(=O)C5CCCCC5)CC4)nc3)c12 (stereo not drawn) [Compound 107]" observation_type=Emax reported_value="< 30%"

Dear colleague, I am looking for the recorded Emax of the following molecule: N#Cc1cnn2cc(-c3ccc(N4CCN(C(=O)CN5CCC(c6ccc(NC7CCC(=O)NC7=O)cc6)CC5)CC4)cc3)cc(-c3ccc(N4CC5CC(C4)N5Cc4ccccc4)nc3)c12 (stereo not drawn) [Compound 22]
< 30%

How about CCC1(C(=O)NC2CCOCC2)CCN(c2ccc(-c3nc(-c4cnn([C@H]5CC[C@H](N6CCC(c7ccc(N[C@@H]8CCC(=O)NC8=O)cc7F)CC6)CC5)c4)cn4ncc(C#N)c34)cn2)CC1 (stereo in doubt) [Compound 143] ?
< 30%

What do we get for CCC1(C(=O)NC(C)C)CCN(c2ccc(-c3cc(-c4cnn(C5CCN(C(=O)CN6CCC(c7ccc(NC8CCC(=O)NC8=O)cc7F)CC6)CC5)c4)cn4ncc(C#N)c34)cc2)CC1 (stereo not drawn) [Compound 58] ?
< 50%

What do we get for CCC1(C(=O)NC(C)(C)C)CCN(c2ccc(-c3nc(-c4cnn([C@H]5CC[C@H](N6CCC(c7ccc(N[C@@H]8CCC(=O)NC8=O)cc7F)CC6)CC5)c4)cn4ncc(C#N)c34)cn2)CC1 (single isomer, unassigned) [Compound 146] ?
< 30%

Thanks! And N#Cc1cnn2cc(-c3cnn(C4CCN(C(=O)CN5CCC(c6ccc(NC7CCC(=O)NC7=O)cc6F)CC5)CC4)c3)nc(-c3ccc(N4CCC(Cc5ccccn5)CC4)nc3)c12 (stereo not drawn) [Compound 72] ?
< 50%

Item: CC1(c2ncccn2)CCN(c2ccc(-c3nc(-c4cnn(C5CCN(C(=O)CC6(O)CCN(c7ccc(NC8CCC(=O)NC8=O)cc7F)CC6)CC5)c4)cn4ncc(C#N)c34)cn2)CC1 (stereo not drawn) [Compound 104]
< 30%

Note, next up: CCC1(C(=O)NC(C)C)CCN(c2ccc(-c3nc(-c4cnn(C5CCN(C(=O)CC6(O)CCN(c7ccc(NC8CCC(=O)NC8=O)cc7Cl)CC6)CC5)c4)cn4ncc(C#N)c34)cn2)CC1 (stereo not drawn) [Compound 14]
< 30%

Also need CCC1(C(=O)NC(C)C)CCN(c2ccc(-c3nc(-c4cnn(C5CCN(C(=O)CC6(O)CCN(c7ccc(N[C@@H]8CCC(=O)NC8=O)cc7F)CC6)CC5)c4)cn4ncc(C#N)c34)cn2)CC1 (single isomer, unassigned) [Compound 79] , thanks.
< 30%

Now try CCC1(C(=O)NC(C)C)CCN(c2ccc(-c3cc(-c4cnn(C5CCN(C(=O)CC6(O)CCN(c7ccc(NC8CCC(=O)NC8=O)cc7F)CC6)CC5)c4)cn4ncc(C#N)c34)cn2)CC1 (stereo not drawn) [Compound 4] .
< 30%

Now this one: CCC1(NC(=O)C(C)C)CCN(c2ccc(-c3cc(-c4cnn(C5CCN(C(=O)CN6CCC(c7ccc(NC8CCC(=O)NC8=O)cc7F)CC6)CC5)c4)cn4ncc(C#N)c34)cn2)CC1 (stereo not drawn) [Compound 55]
< 50%

Same for N#Cc1cnn2cc(-c3cnn([C@H]4CC[C@@H](N5CCN(c6ccc(NC7CCC(=O)NC7=O)cc6F)CC5)CC4)c3)nc(-c3ccc(N4CC5CC(C4)N5CC4CCC(F)(F)CC4)nc3)c12 (single isomer, unassigned) [Compound 178]
< 30%

Follow-up entry: N#Cc1cnn2cc(-c3cnn([C@H]4CC[C@@H](N5CCN(c6c(F)cc(NC7CCC(=O)NC7=O)cc6F)CC5)CC4)c3)nc(-c3ccc(N4CCC5(CC4)CCN5c4nccc(Cl)n4)nc3)c12 (single isomer, unassigned) [Compound 204]
< 30%

Please do the same for CCC1(C(=O)NC(C)C)CCN(c2ccc(-c3nc(-c4cnn(C5CCN(C(=O)CC6(O)CCN(c7cc(OC)c(NC8CCC(=O)NC8=O)cc7Cl)CC6)CC5)c4)cn4ncc(C#N)c34)cn2)CC1 (stereo not drawn) [Compound 90] as well.
< 30%

Can you check CCC1(C(=O)NC2CCC2)CCN(c2ccc(-c3nc(-c4cnn([C@H]5CC[C@H](N6CCC(c7ccc(NC8CCC(=O)NC8=O)cc7)CC6)CC5)c4)cn4ncc(C#N)c34)cn2)CC1 (single isomer, unassigned) [Compound 126] next?
< 30%

For CCC1(C(=O)NC(C)C)CCN(c2ccc(-c3nc(-c4ccc(N5CCN(C(=O)CC6(O)CCN(c7ccc8c(N9CCC(=O)NC9=O)nn(C)c8c7)CC6)CC5)cc4)cn4ncc(C#N)c34)cn2)CC1 [Compound 173] then?
< 50%

Entry CCC1(C(=O)NC2CCC2)CCN(c2ccc(-c3nc(-c4cnn([C@H]5CC[C@H](N6CCN(c7c(F)cc(N[C@@H]8CCC(=O)NC8=O)cc7F)CC6)CC5)c4)cn4ncc(C#N)c34)cn2)CC1 (single isomer, unassigned) [Compound 137] please
< 30%

###

- experimental-target: RET(KD: 658-1114 G810R) (Homo sapiens, UniProt P07949, G810R)
- Construct: 658-1114; expressed in transfected cells; host or cells: 293T.165 (293T cells, generated in-house)
- test-summary: HiBiT-Degradation, RET G810R degradation assay (Nano-Glo HiBiT Lytic), 293T.165 cells
- Type: cell-based
- measurement-context: 6.0 hours, % remaining protein, read-out: 293T.165 RET(KD: 658-1114 G810R) 6.0 hours (Emax)
Each entry below carries its recorded Emax.

compound="CC(C)NC(=O)C1(C)CCN(c2ccc(-c3cc(-c4ccc(N5CCN(C(=O)CC6(O)CCN(c7ccc(CN8CCC(=O)NC8=O)cc7)CC6)CC5)cc4)cn4ncc(C#N)c34)cn2)CC1 [Compound 33]" experimental_target="RET(KD: 658-1114 G810R) (Homo sapiens, UniProt P07949, G810R)" reported_value="< 70%"
compound="N#Cc1cnn2cc(-c3cnn(C4CCN(C(=O)CC5(O)CCN(c6ccc(NC7CCC(=O)NC7=O)cc6F)CC5)CC4)c3)nc(-c3ccc(N4CCCN(Cc5ccccc5)CC4)nc3)c12 (stereo not shown) [Compound 108]" experimental_target="RET(KD: 658-1114 G810R) (Homo sapiens, UniProt P07949, G810R)" reported_value="< 30%"
compound="COC1(C(=O)NC(C)C)CCN(c2ccc(-c3cc(-c4cnn(C5CCN(C(=O)CN6CCC(c7ccc(NC8CCC(=O)NC8=O)cc7F)CC6)CC5)c4)cn4ncc(C#N)c34)cn2)CC1 (stereo not shown) [Compound 6]" experimental_target="RET(KD: 658-1114 G810R) (Homo sapiens, UniProt P07949, G810R)" reported_value="< 50%"
compound="COc1ccc(NC2CCN(c3ccc(-c4nc(-c5cnn([C@H]6CC[C@@H](N7CCN(c8c(F)cc(NC9CCC(=O)NC9=O)cc8F)CC7)CC6)c5)cn5ncc(C#N)c45)cn3)CC2)cn1 (single isomer, unassigned) [Compound 203]" experimental_target="RET(KD: 658-1114 G810R) (Homo sapiens, UniProt P07949, G810R)" reported_value="< 30%"
compound="CCC1(C(=O)NC2CCC2)CCN(c2ccc(-c3nc(-c4cnn(C5CCN(C(=O)CC6(O)CCN(c7ccc(NC8CCC(=O)NC8=O)cc7F)CC6)CC5)c4)cn4ncc(C#N)c34)cn2)CC1 (stereo not shown) [Compound 81]" experimental_target="RET(KD: 658-1114 G810R) (Homo sapiens, UniProt P07949, G810R)" reported_value="< 30%"
compound="N#Cc1cnn2cc(-c3ccc(N4CCN(C(=O)CN5CCC(c6ccc(NC7CCC(=O)NC7=O)cc6)CC5)CC4)cc3)cc(-c3ccc(N4CCOCC4)nc3)c12 (stereo not shown) [Compound 24]" experimental_target="RET(KD: 658-1114 G810R) (Homo sapiens, UniProt P07949, G810R)" reported_value="< 50%"
compound="CN(C)c1ccc(-c2cc(-c3cnn([C@H]4CC[C@@H](CCN5CCC(c6ccc(NC7CCC(=O)NC7=O)cc6)CC5)CC4)c3)cn3ncc(C#N)c23)cn1 (stereo partly shown) [Compound 43]" experimental_target="RET(KD: 658-1114 G810R) (Homo sapiens, UniProt P07949, G810R)" reported_value="< 50%"
compound="C[C@H](c1ccccn1)N1CCN(c2ccc(-c3nc(-c4cnn(C5CCN(C(=O)CC6(O)CCN(c7ccc(NC8CCC(=O)NC8=O)cc7F)CC6)CC5)c4)cn4ncc(C#N)c34)cn2)CC1 (stereo partly shown) [Compound 1]" experimental_target="RET(KD: 658-1114 G810R) (Homo sapiens, UniProt P07949, G810R)" reported_value="< 50%"
compound="CC(C)Oc1ccc(CN2[C@@H]3COC[C@H]2CN(c2ccc(-c4nc(-c5cnn([C@H]6CC[C@H](N7CCN(c8c(F)cc(NC9CCC(=O)NC9=O)cc8F)CC7)CC6)c5)cn5ncc(C#N)c45)cn2)C3)cn1 (mixture of isomers) [Compound 213]" experimental_target="RET(KD: 658-1114 G810R) (Homo sapiens, UniProt P07949, G810R)" reported_value="< 30%"

Attention now shifts to the item below.
GET /values?readout=Emax&system=RET(KD: 658-1114 G810R) (Homo sapiens, UniProt P07949, G810R)&item= CCC1(C(=O)NC(C)C)CCN(c2ccc(-c3nc(-c4cnn(C5CCC6(CC5)CN(C(=O)CC5(O)CCN(c7ccc(NC8CCC(=O)NC8=O)cc7F)CC5)C6)c4)cn4ncc(C#N)c34)cn2)CC1 (stereo not shown) [Compound 182]
< 50%
